target: His-tagged recombinant human Gal-3 (hGal-3) (Homo sapiens (Human)); assay: Gal-3 HTRF assay (His-tagged hGal-3 binding to B-ASF); details: read-out: hGal IC50
pIC50: −log10 of the molar value.
# if value of pIC50 reaches 7, tag Condition met; if it stays below, tag Condition not met

QUERY: Does `Cc1nc([C@@H]2O[C@H](CO)[C@H](O)[C@H](n3cc(-c4cc(F)c(Cl)c(F)c4)nn3)[C@H]2O)n(-c2cc(Cl)ccc2C(C)(C)C)n1` have a reported pIC50 of at least 7?
RESULT: Condition met

QUERY: Does `COc1cc(-c2cn([C@H]3[C@@H](O)[C@@H](CO)O[C@@H](c4nc(C)nn4-c4cc(Cl)ccc4C(F)(F)F)[C@@H]3O)nn2)ccc1Cl` have a reported pIC50 of at least 7?
RESULT: Condition met

QUERY: Does `OC[C@H]1O[C@@H](c2ncnn2-c2cc(Cl)ccc2C(F)(F)F)[C@H](O)[C@@H](n2cc(-c3cc(F)c(F)c(F)c3)nn2)[C@H]1O` have a reported pIC50 of at least 7?
RESULT: Condition met

QUERY: Does `Cc1nc([C@@H]2O[C@H](CO)[C@H](O)[C@H](n3cc(-c4c(F)cc(Cl)cc4F)nn3)[C@H]2O)n(-c2cc(Cl)ccc2C(F)(F)F)n1` have a reported pIC50 of at least 7?
RESULT: Condition met

QUERY: Does `Cc1nc([C@@H]2O[C@H](CO)[C@H](O)[C@H](n3cc(-c4ccc(Cl)c(F)c4)nn3)[C@H]2O)n(-c2cc(Cl)ccc2C2CC2)n1` have a reported pIC50 of at least 7?
RESULT: Condition met

QUERY: Does `Cc1nc([C@@H]2O[C@H](CO)[C@H](O)[C@H](n3cc(-c4ccc5nccnc5c4)nn3)[C@H]2O)n(-c2cc(Cl)ccc2C(F)(F)F)n1` have a reported pIC50 of at least 7?
RESULT: Condition not met

QUERY: Does `Cc1nc([C@@H]2O[C@H](CO)[C@H](O)[C@H](n3cc(-c4ccc(Cl)c(F)c4)nn3)[C@H]2O)n(-c2cc(Cl)ccc2OC(F)(F)F)n1` have a reported pIC50 of at least 7?
RESULT: Condition met

QUERY: Does `CO[C@@H]1[C@@H](n2cc(-c3ccc(Br)c(F)c3)nn2)[C@@H](O)[C@@H](CO)O[C@H]1c1nc(C)nn1-c1ccc2ncsc2c1` have a reported pIC50 of at least 7?
RESULT: Condition not met

QUERY: Does `Cc1nc([C@@H]2O[C@H](CO)[C@H](O)[C@H](n3cc(-c4ccc(Cl)c(F)c4)nn3)[C@H]2O)n(-c2cc(Cl)c(F)cc2Cl)n1` have a reported pIC50 of at least 7?
RESULT: Condition met

QUERY: Does `Cc1nc([C@@H]2O[C@H](CO)[C@H](O)[C@H](n3cc(-c4cc(F)c(Cl)c(F)c4)nn3)[C@H]2O)n(-c2cc(Cl)cnc2C(F)(F)F)n1` have a reported pIC50 of at least 7?
RESULT: Condition met

###

Could you please report measured IC50 for the items listed next?
molecular target: His-tagged recombinant human Gal-3 (hGal-3) (Homo sapiens (Human), UniProt P17931); assay: Gal-3 HTRF assay (His-tagged hGal-3 binding to B-ASF); conditions: read-out: hGal IC50;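 further: compounds preincubated 30 min with hGal-3, then 1 h with B-ASF, detection via terbium anti-His antibody and streptavidin d2. Control with B-ASF counts as full signal, omitting B-ASF as background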
Sequence (P17931 whole entry): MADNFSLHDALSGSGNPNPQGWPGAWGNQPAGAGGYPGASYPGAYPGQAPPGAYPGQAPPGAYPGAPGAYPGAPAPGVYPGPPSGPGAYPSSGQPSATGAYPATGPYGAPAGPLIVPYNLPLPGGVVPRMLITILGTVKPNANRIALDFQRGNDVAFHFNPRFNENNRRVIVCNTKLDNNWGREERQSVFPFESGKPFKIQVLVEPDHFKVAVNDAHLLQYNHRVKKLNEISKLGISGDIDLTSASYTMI

QUERY: Specify IC50 for `Cc1nc([C@@H]2O[C@H](CO)[C@H](O)[C@H](n3cc(-c4cc(F)c(Cl)c(Cl)c4)nn3)[C@H]2O)n(-c2ccc3ncsc3c2)n1` and stop.
RESULT: 34 nM

QUERY: Specify IC50 for `Cc1nc([C@@H]2O[C@H](CO)[C@H](O)[C@H](n3cc(-c4cc(F)c(Cl)c(F)c4)nn3)[C@H]2O)n(-c2cc(Cl)cc(F)c2Cl)n1` and stop.
RESULT: 46 nM

QUERY: Specify IC50 for `Cc1nc([C@@H]2O[C@H](CO)[C@H](O)[C@H](n3cc(-c4cc(F)c(Cl)c(F)c4)nn3)[C@H]2O)n(-c2cc(Cl)ccc2C2CC2)n1` and stop.
RESULT: 46 nM

QUERY: Specify IC50 for `Cc1nc([C@@H]2O[C@H](CO)[C@H](O)[C@H](n3cc(-c4cc(F)c(Cl)c(F)c4)nn3)[C@H]2O)n(-c2cc(C(F)F)ccc2Cl)n1` and stop.
RESULT: 50 nM

QUERY: Specify IC50 for `Cc1nc([C@@H]2O[C@H](CO)[C@H](O)[C@H](n3cc(-c4ccc(Br)c(F)c4)nn3)[C@H]2O)n(-c2cc(Cl)cc3ncccc23)n1` and stop.
RESULT: 82 nM

QUERY: Specify IC50 for `Cc1nc([C@@H]2O[C@H](CO)[C@H](O)[C@H](n3cc(-c4cc(F)c(F)c(F)c4)nn3)[C@H]2O)n(-c2cc(Cl)c(F)cc2Cl)n1` and stop.
RESULT: 39 nM

###

target: His-tagged recombinant human Gal-3 (hGal-3) (Homo sapiens (Human)); assay: Gal-3 HTRF assay (His-tagged hGal-3 binding to B-ASF); settings: read-out: hGal3 IC50
Checkbox rule: IC50 lower than 400 nM = true; IC50 not lower than 400 nM = false.

QUERY: Consider the molecule Cc1nc([C@H]2C[C@@H](n3cc(-c4cc(F)c(Cl)c(F)c4)nn3)[C@@H](O)[C@@H](CO)O2)n(-c2cc(Cl)ccc2C)n1 [Example 263] . Is its IC50 strictly less than 400 nM?
RESULT: true

QUERY: Consider the molecule Cc1nc([C@@H]2O[C@H](CO)[C@H](O)[C@H](n3cc(-c4ccc(Cl)c(F)c4)nn3)[C@H]2O)n(-c2ccccc2)n1 [Example 247] . Is its IC50 strictly less than 400 nM?
RESULT: false

QUERY: Consider the molecule Cc1nc2ccc(-n3ncnc3[C@@H]3O[C@H](CO)[C@H](O)[C@H](n4cc(-c5cc(F)c(Br)c(F)c5)nn4)[C@H]3O)cc2s1 [Example 226] . Is its IC50 strictly less than 400 nM?
RESULT: true

QUERY: Consider the molecule Cc1nc2ccc(-n3ncnc3[C@@H]3O[C@H](CO)[C@H](O)[C@H](n4cc(-c5cc(N)c(F)c(F)c5)nn4)[C@H]3O)cc2s1 [Example 218] . Is its IC50 strictly less than 400 nM?
RESULT: true

QUERY: Consider the molecule Cc1nc2ccc(-n3ncnc3[C@@H]3O[C@H](CO)[C@H](O)[C@H](n4cc(-c5ccc(C)c(F)c5)nn4)[C@H]3O)cc2s1 [Example 212] . Is its IC50 strictly less than 400 nM?
RESULT: true

QUERY: Consider the molecule CC(=O)Nc1ccc(-c2cn([C@H]3[C@@H](O)[C@@H](CO)O[C@@H](c4ncnn4-c4ccc5nc(C)sc5c4)[C@@H]3O)nn2)cc1F [Example 204] . Is its IC50 strictly less than 400 nM?
RESULT: false

QUERY: Consider the molecule Cc1nc([C@@H]2O[C@H](CO)[C@H](O)[C@H](n3cc(-c4ccc(Cl)c(F)c4)nn3)[C@H]2O)n(-c2cc(Cl)ccc2F)n1 [Example 249] . Is its IC50 strictly less than 400 nM?
RESULT: true

QUERY: Consider the molecule Cc1nc2ccc(-n3ncnc3[C@@H]3O[C@H](CO)[C@H](O)[C@H](n4cc(-c5ccc(C#N)c(F)c5)nn4)[C@H]3O)cc2s1 [Example 230] . Is its IC50 strictly less than 400 nM?
RESULT: false

QUERY: Consider the molecule Cc1nc2ccc(-n3ncnc3[C@@H]3O[C@H](CO)[C@H](O)[C@H](n4cc(-c5cc(C)c(C#N)c(F)c5)nn4)[C@H]3O)cc2s1 [Example 236] . Is its IC50 strictly less than 400 nM?
RESULT: true

QUERY: Consider the molecule OC[C@H]1O[C@@H](c2oncc2-c2cccc(Cl)c2)[C@H](O)[C@@H](n2cc(-c3cc(F)c(F)c(F)c3)nn2)[C@H]1O [Ex 289] . Is its IC50 strictly less than 400 nM?
RESULT: false

QUERY: Consider the molecule Cc1nc([C@H]2C[C@@H](n3cc(-c4cc(F)c(Cl)c(F)c4)nn3)[C@@H](O)[C@@H](CO)O2)n(-c2cc(Cl)ccc2Cl)n1 [Example 262] . Is its IC50 strictly less than 400 nM?
RESULT: true

###

Could you please report measured IC50 for the items listed next?
molecular target: His-tagged recombinant human Gal-3 (hGal-3) (Homo sapiens (Human)); assay: Gal-3 HTRF assay (His-tagged hGal-3 binding to B-ASF); details: HTRF, hGal-3 15 nM, B-ASF 15 nM; read-out: hGal-3 IC50
Field: value (include unit after the number)

QUERY: Specify IC50 for `OC[C@H]1O[C@@H](c2ncnn2-c2ccc(Cl)c(Cl)c2)[C@H](O)[C@@H](n2cc(-c3cc(F)c(F)c(F)c3)nn2)[C@H]1O` and stop.
RESULT: 79 nM

QUERY: Specify IC50 for `Cc1nc2ccc(-n3ncnc3[C@@H]3O[C@H](CO)[C@H](O)[C@H](n4cc(C(=O)NC5CC5)nn4)[C@H]3O)cc2s1` and stop.
RESULT: 180 nM

QUERY: Specify IC50 for `OC[C@H]1O[C@@H](c2nncn2-c2cc(Cl)ccc2Cl)[C@H](O)[C@@H](n2cc(-c3cc(F)c(F)c(F)c3)nn2)[C@H]1O` and stop.
RESULT: 30 nM

QUERY: Specify IC50 for `Cc1nc2ccc(-n3ncnc3[C@@H]3O[C@H](CO)[C@H](O)[C@H](n4cc(C(=O)N(C)C)nn4)[C@H]3O)cc2s1` and stop.
RESULT: 5650 nM

QUERY: Specify IC50 for `OC[C@H]1O[C@@H](c2nncn2-c2ccc(-c3cnco3)cc2)[C@H](O)[C@@H](n2cc(-c3cc(F)c(F)c(F)c3)nn2)[C@H]1O` and stop.
RESULT: 580 nM

QUERY: Specify IC50 for `OC[C@H]1O[C@@H](c2nncn2-c2ccc3cn[nH]c3c2)[C@H](O)[C@@H](n2cc(-c3cc(F)c(F)c(F)c3)nn2)[C@H]1O` and stop.
RESULT: 630 nM
